pest or weed control at 250 g/ha for assorted molecules
System: Alopecurus myosuroides (ALOMY)
experiment.notes: Example B pre-emergence herbicidal activity, glasshouse pot test
Assay type: in vivo
condition.details: 312 h, Rate 250 g/ha, evaluated after 13 days, read-out: Pre-Emergence Activity ALOMY (100=total damage to plant; 0=no damage to plant)
assay.endpoint: pest or weed control at 250 g/ha (%)

>>> value_reported("CC(=O)OC1=C(c2nc(-c3ccc(OC(F)F)cc3F)sc2C)C(=O)[C@H]2[C@@H]1[C@@H]1CC[C@H]2O1 (racemic) [Compound P10]")
90
>>> value_reported("Cc1sc(-c2ccc(I)cc2)nc1C1C(=O)[C@@H]2[C@H](C1=O)[C@H]1CC[C@@H]2O1 (stereo partly shown) [Compound T33]")
90
>>> value_reported("Cc1sc(-c2ccc(OC(F)F)cc2Cl)nc1C1C(=O)[C@@H]2[C@H](C1=O)[C@H]1CC[C@@H]2O1 (stereo partly shown) [Compound T52]")
70
>>> value_reported("Cc1cnc(-c2ccc(Cl)cc2)nc1C1C(=O)[C@@H]2[C@H](C1=O)[C@H]1CC[C@@H]2O1 (stereo partly shown) [Compound T53]")
50
>>> value_reported("Cc1sc(-c2ccc(Br)cn2)nc1C1C(=O)[C@@H]2[C@H](C1=O)[C@H]1CC[C@@H]2O1 (stereo partly shown) [Compound T38]")
0
>>> value_reported("CCc1sc(-c2cc(F)c(Cl)cc2Cl)nc1C1C(=O)[C@@H]2[C@H](C1=O)[C@H]1CC[C@@H]2O1 (stereo partly shown) [Compound T47]")
90
>>> value_reported("Cc1sc(-c2ccc(Cl)s2)nc1C1C(=O)[C@@H]2[C@H](C1=O)[C@H]1CC[C@@H]2O1 (stereo partly shown) [Compound T37]")
30
>>> value_reported("CCc1sc(-c2ccc(OC(F)F)cc2)nc1C1C(=O)[C@@H]2[C@H](C1=O)[C@H]1CC[C@@H]2O1 (stereo partly shown) [Compound T42]")
90
>>> value_reported("Cc1[se]c(-c2ccc(Cl)cc2)nc1C1C(=O)[C@@H]2[C@H](C1=O)[C@H]1CC[C@@H]2O1 (stereo partly shown) [Compound T34]")
40
>>> value_reported("Cc1sc(-c2ccc([S+](C)[O-])cc2)nc1C1C(=O)[C@@H]2[C@H](C1=O)[C@H]1CC[C@@H]2O1 (stereo partly shown) [Compound T49]")
20
>>> value_reported("CCc1sc(-c2ccc(Cl)cc2Cl)nc1C1C(=O)[C@@H]2[C@H](C1=O)[C@H]1CC[C@@H]2O1 (stereo partly shown) [Compound T45]")
90
>>> value_reported("Cc1sc(-c2ccc(C(C)C)cc2)nc1C1C(=O)[C@@H]2[C@H](C1=O)[C@H]1CC[C@@H]2O1 (stereo partly shown) [Compound T51]")
80
>>> value_reported("Cc1sc(-c2ccc(Br)cc2F)nc1C1C(=O)[C@@H]2[C@H](C1=O)[C@H]1CC[C@@H]2O1 (stereo partly shown) [Compound T36]")
90
